Experiment: Selectivity index, ratio of IC50 for cytotoxicity against African green monkey Vero cells to MIC for antimycobacterial activity against Mycobacterium tuberculosis H37Rv ATCC 27294
Assay type: toxicity, cell-based
Settings: read-out: Selectivity Index
measurement.kind: selectivity ratio
Write no unit; give the number alone.

Recorded selectivity ratio of C/C=C/C[C@@H]1NC(=O)[C@H](CC(C)C)N2C(=O)[C@H](C[C@@H](C)[C@@H]2OCCCC)N(C)C(=O)[C@H](C)NC(=O)[C@H](Cc2ccc(O)c([N+](=O)[O-])c2)NC(=O)[C@H](CC(C)C)N(C)C(=O)[C@H](Cc2cn(C(C)(C)[C@H](O)CCl)c3ccccc23)NC1=O , please.
120

---

Experiment: Binding affinity to N-terminal Mycobacterium tuberculosis ClpC1 assessed as dissociation constant by SPR analysis
# Kd values compiled below
Could you kindly put the unit after your number?

Observe how each entry below is paired with its result.
INSERT INTO assay_data (compound, meas_value) VALUES
  ('C/C=C/C[C@@H]1NC(=O)[C@H](CC(C)C)N2C=C(C)C[C@@H](C2=O)N(C)C(=O)[C@H](C)NC(=O)[C@H](Cc2ccc(O)c(NC(=O)CCl)c2)NC(=O)[C@H](CC(C)C)N(C)C(=O)[C@H](Cc2cn(C(C)(C)[C@H](O)CCl)c3ccccc23)NC1=O', '220 nM'),
  ('C/C=C/C[C@@H]1NC(=O)[C@H](CC(C)C)N2C(=O)[C@H](CC(C)[C@H]2OC)N(C)C(=O)[C@H](C)NC(=O)[C@H](Cc2ccc(O)c([N+](=O)[O-])c2)NC(=O)[C@H](CC(C)C)N(C)C(=O)[C@H](Cc2cn(C(C)(C)[C@H](O)COC)c3ccccc23)NC1=O (some centres undefined)', '75 nM'),
  ('C/C=C/C[C@@H]1NC(=O)[C@H](CC(C)C)N2C(=O)[C@H](C[C@H](C)[C@H]2OCC)N(C)C(=O)[C@H](C)NC(=O)[C@H](Cc2ccc(O)c([N+](=O)[O-])c2)NC(=O)[C@H](CC(C)C)N(C)C(=O)[C@H](Cc2cn(C(C)(C)[C@H](O)CCl)c3ccccc23)NC1=O', '11 nM');

Now turn to the next compound.
Recorded Kd of C/C=C/C[C@@H]1NC(=O)[C@H](CC(C)C)N2C(=O)[C@H](CC(C)[C@H]2OC)N(C)C(=O)[C@H](C)NC(=O)[C@H](Cc2ccc(OC)c([N+](=O)[O-])c2)NC(=O)[C@H](CC(C)C)N(C)C(=O)[C@H](Cc2cn(C(C)(C)[C@H](O)COC)c3ccccc23)NC1=O (some centres undefined) , please.
37 nM

---

# IC50 values compiled below
Experiment: Cytotoxicity against African green monkey Vero cells
Format: toxicity, cell-based
Settings: African green monkey (Chlorocebus sabaeus)

Recorded IC50 of CO[C@H]1/C=C/O[C@@]2(C)Oc3c(C)c(O)c4c(O)c(c(/C=N/N5CCN(C)CC5)c(O)c4c3C2=O)NC(=O)/C(C)=C\C=C\[C@H](C)[C@H](O)[C@@H](C)[C@@H](O)[C@@H](C)[C@H](OC(C)=O)[C@@H]1C , please.
> 122 µM

---

Experiment: Selectivity index, ratio of IC50 for cytotoxicity against African green monkey Vero cells to MIC for antimycobacterial activity against Mycobacterium tuberculosis H37Rv ATCC 27294
Format: toxicity, cell-based
Conditions: read-out: Selectivity Index
measurement.kind: selectivity ratio

Observe how each entry below is paired with its result.
INSERT INTO assay_data (compound, meas_value) VALUES
  ('C/C=C/C[C@@H]1NC(=O)[C@H](CC(C)C)N2C(=O)[C@H](CC(C)[C@H]2O)N(C)C(=O)[C@H](C)NC(=O)[C@H](Cc2ccc(OC)c([N+](=O)[O-])c2)NC(=O)[C@H](CC(C)C)N(C)C(=O)[C@H](Cc2cn(C(C)(C)[C@H]3CO3)c3ccccc23)N(C)C1=O (some centres undefined)', '> 1900'),
  ('C/C=C/C[C@@H]1NC(=O)[C@H](CC(C)C)N2C(=O)[C@H](C[C@H](C)[C@@H]2OCCCC)N(C)C(=O)[C@H](C)NC(=O)[C@H](Cc2ccc(O)c([N+](=O)[O-])c2)NC(=O)[C@H](CC(C)C)N(C)C(=O)[C@H](Cc2cn(C(C)(C)[C@H](O)CCl)c3ccccc23)NC1=O', '> 2100'),
  ('C/C=C/C[C@@H]1NC(=O)[C@H](CC(C)C)N2C=C(C)C[C@@H](C2=O)N(C)C(=O)[C@H](C)NC(=O)[C@H](Cc2ccc(O)c([N+](=O)[O-])c2)NC(=O)[C@H](CC(C)C)N(C)C(=O)[C@H](Cc2cn(C(C)(C)[C@H]3CO3)c3ccccc23)NC1=O', '> 33000');

Now turn to the next compound.
Recorded selectivity ratio of C/C=C/C[C@@H]1NC(=O)[C@H](CC(C)C)N2C=C(C)C[C@@H](C2=O)N(C)C(=O)[C@H](C)NC(=O)[C@H](Cc2ccc3c(c2)N=C(C)CC(C)(C)O3)NC(=O)[C@H](CC(C)C)N(C)C(=O)[C@H](Cc2cn(C(C)(C)[C@H](O)CCl)c3ccccc23)NC1=O , please.
> 130

Source: ChEMBL document CHEMBL6177961
